ASSAY_SYSTEM: c-Src (Homo sapiens (Human), UniProt P12931)
Sequence (P12931 whole entry, looked up): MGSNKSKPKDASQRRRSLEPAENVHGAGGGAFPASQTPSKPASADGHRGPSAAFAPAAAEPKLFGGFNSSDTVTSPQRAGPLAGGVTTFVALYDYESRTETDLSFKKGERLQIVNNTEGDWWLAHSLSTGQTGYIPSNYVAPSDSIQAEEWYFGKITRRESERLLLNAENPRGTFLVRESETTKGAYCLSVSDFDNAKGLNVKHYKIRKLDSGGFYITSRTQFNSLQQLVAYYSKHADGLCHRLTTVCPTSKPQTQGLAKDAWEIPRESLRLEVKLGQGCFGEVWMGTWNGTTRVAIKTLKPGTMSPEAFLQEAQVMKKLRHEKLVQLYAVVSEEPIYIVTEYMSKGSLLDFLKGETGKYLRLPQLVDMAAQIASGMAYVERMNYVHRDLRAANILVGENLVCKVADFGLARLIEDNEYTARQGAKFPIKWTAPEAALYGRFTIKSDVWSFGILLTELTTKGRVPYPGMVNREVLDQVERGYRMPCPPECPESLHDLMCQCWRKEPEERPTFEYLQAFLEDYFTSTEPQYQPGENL
METHOD_DESCRIPTION: TR-FRET c-Src kinase assay
Format: biochemical
CONDITIONS: read-out: c-SRC % inhibition at 100 nM; 100 nM; ATP 50 μM
Recorded measurements of inhibition at 0.1 µM, one per entry
Entry rule: numbers only, all in %.

Consider the reported inhibition at 0.1 µM for these compounds:
Query: Reported inhibition at 0.1 µM, compound Cc1ccc(NC(=O)c2cccc(C(F)(F)F)c2)cc1N1CCc2nc(Nc3ccc(C(N)=O)nc3)ncc2C1 : ____
Result: 95

Query: Report inhibition at 0.1 µM for Cc1ccc(NC(=O)c2cccc(C(F)(F)F)c2)cc1N1CCc2nc(Nc3ccc(C(=O)NC4CC4)nc3)ncc2C1 please.
Result: 80

Query: inhibition at 0.1 µM for CN1CCN(c2ccc(Nc3ncc4c(n3)CCN(c3cc(NC(=O)c5cccc(C(F)(F)F)c5)ccc3Cl)C4=O)cc2)CC1 ?
Result: 73

Query: So what's the measured inhibition at 0.1 µM for this one? Cc1ccc(NC(=O)CC2CCCC2)cc1N1CCc2nc(Nc3ccc(OCCN4CCCC4)cc3)ncc2C1
Result: 98

Consider the additional compound presented here.
Query: Quick one: inhibition at 0.1 µM for Cc1ccc(NC(=O)c2cccc(C(F)(F)F)c2)cc1N1CCc2nc(Nc3ccc(C(=O)NC4CCN(C)CC4)nc3)ncc2C1 ?
Result: 99
